Data origin: PubChem BioAssay (EPA / NIEHS)

- Tested on: SRY-box transcription factor 17 (SOX17) Protein Expression, Deisenroth Lab, SOX17 (gene 64321)
- Experiment Notes: CCTE_Deisenroth_DEVTOX-GLR_Pluri_SOX17: CCTE's DevTox GLR-Pluri Assay Evaluation of SRY-box transcription factor 17 (SOX17) Protein Expression, Deisenroth Lab (AID 2284427)
Results filed as inconclusive are left out. Calls of active or inactive are those of the source. How the source made its calls: active means hit-call score of the fitted dose curve at least 0.9, where 1 is the maximum; inconclusive means response in the unintended direction; inactive means score below 0.9.
Give one outcome, nothing more. List: 1 (yes) for active, 0 (no) for inactive

Please review the entries below; each comes with its answer.
CC(=O)Oc1ccccc1C(=O)O; 0 (no)
CCCc1cc(=O)[nH]c(=S)[nH]1; 0 (no)
CC1=C(/C=C/C(C)=C/C=C/C(C)=C/CO)C(C)(C)CCC1; 1 (yes)

Okay, now this compound:
**Q:** Name the outcome recorded for "O=c1[nH]cc(F)c(=O)[nH]1" in the assay.
**A:** 1 (yes)
